Target: TRPC5 channel (Homo sapiens, UniProt Q9UL62)
Construct: expressed in transfected cells; host or cells: HEK293 TREx (inducible expression)
Sequence (Q9UL62 1-973): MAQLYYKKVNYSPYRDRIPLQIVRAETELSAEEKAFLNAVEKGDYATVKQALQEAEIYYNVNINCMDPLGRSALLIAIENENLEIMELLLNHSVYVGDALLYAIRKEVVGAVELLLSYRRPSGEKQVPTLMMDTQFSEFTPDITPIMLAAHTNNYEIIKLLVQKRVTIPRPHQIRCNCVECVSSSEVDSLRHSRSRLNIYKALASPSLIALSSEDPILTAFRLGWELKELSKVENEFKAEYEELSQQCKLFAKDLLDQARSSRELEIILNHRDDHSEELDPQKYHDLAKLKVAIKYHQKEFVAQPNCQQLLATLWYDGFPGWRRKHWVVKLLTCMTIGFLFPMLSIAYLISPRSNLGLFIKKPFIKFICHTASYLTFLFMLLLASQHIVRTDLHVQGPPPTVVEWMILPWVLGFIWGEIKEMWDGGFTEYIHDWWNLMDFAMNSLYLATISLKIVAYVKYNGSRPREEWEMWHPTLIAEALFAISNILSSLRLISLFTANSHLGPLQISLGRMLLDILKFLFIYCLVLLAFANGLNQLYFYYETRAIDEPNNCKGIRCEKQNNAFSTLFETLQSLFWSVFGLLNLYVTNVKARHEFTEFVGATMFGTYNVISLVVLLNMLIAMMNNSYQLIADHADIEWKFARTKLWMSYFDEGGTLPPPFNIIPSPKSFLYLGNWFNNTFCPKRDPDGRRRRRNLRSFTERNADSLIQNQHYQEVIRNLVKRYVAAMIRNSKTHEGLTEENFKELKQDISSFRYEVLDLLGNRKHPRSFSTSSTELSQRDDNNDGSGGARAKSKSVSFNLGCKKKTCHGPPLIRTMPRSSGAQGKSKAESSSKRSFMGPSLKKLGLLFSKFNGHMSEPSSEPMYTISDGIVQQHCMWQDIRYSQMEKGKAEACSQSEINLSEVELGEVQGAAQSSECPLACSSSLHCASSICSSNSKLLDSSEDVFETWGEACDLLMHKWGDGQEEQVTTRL
Experiment: Assay A: Determination of TRPC5-inhibition (whole-cell patch clamp)
Assay type: cell-based
Settings: compounds of WO2014/143799, TRPC5-expressing HEK293 TREx cells, LaCl3-activated current
Description: Assay A: Determination of TRPC5-Inhibition Patch clamp experiments permit the detection of currents through the TRPC5 channel in a cell line. […] TRPC5 cells were induced 20-48 hours, removed from growth plates, and replated at low density (to attain good single-cell physical separation) on glass coverslips for measurement. […] Currents elicited were quantified at −80 mV and +80 mV. […]
pIC50: −log10 of the molar value.

# compound, pIC50
measured = [
    ("Cn1c(=O)n(CCCO)c(=O)c2c1nc(Oc1cccc(Cl)c1)n2Cc1cccc(Cl)c1 [Compound ID 260 in WO2014/143799, reference compound]", "> 8.00"),
]

###

Target: hERG channel (Homo sapiens)
Construct: expressed in transfected cells
Sequence (Q12809 whole entry): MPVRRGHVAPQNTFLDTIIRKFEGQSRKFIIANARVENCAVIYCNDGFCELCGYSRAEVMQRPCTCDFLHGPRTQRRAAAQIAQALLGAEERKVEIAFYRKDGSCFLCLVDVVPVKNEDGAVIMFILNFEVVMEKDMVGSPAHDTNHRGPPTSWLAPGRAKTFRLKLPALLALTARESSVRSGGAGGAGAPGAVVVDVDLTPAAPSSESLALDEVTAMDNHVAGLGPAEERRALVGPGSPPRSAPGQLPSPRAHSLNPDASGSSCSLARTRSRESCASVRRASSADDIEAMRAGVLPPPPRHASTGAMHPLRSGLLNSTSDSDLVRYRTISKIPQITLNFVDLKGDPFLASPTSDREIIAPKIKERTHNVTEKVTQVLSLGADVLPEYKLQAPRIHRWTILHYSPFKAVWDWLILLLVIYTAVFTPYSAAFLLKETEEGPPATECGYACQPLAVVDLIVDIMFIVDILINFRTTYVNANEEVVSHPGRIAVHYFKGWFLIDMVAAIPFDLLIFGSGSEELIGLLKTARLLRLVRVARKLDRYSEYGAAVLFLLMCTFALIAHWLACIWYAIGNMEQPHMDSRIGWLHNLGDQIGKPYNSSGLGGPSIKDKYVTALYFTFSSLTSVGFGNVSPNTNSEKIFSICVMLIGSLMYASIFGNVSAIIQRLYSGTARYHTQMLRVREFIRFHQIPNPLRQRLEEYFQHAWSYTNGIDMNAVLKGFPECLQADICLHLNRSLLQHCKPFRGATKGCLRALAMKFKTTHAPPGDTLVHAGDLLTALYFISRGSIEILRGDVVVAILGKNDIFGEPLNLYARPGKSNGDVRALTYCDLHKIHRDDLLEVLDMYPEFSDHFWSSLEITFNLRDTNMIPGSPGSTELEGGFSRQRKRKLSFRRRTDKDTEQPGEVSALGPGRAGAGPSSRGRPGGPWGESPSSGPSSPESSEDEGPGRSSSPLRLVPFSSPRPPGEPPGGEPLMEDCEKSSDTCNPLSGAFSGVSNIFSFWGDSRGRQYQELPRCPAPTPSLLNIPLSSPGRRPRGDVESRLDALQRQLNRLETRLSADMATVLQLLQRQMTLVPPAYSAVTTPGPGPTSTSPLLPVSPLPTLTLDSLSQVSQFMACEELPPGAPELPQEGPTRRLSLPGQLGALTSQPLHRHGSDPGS
Assay: Assay B: Determination of hERG-inhibition (patch-clamp)
Format: cell-based
Conditions: compounds of WO2014/143799; patch-clamp per Rast and Guth 2014
property: IC50

# molecule, observed_result
records = [
    ("Cn1c(=O)n(CCCO)c(=O)c2c1nc(Oc1cccc(Cl)c1)n2Cc1cccc(Cl)c1 [Compound ID 260 in WO2014/143799, reference compound]", "1900 nM"),
    ("COc1ccccc1-c1nc2c(c(=O)n(CCCO)c(=O)n2C)n1Cc1ccc(F)cc1 [Compound ID 415 in WO2014/143799, reference compound]", "> 10000 nM"),
]
